Attribution: ChEMBL document CHEMBL1153346

Test system: Leishmania donovani
Assay: Antiprotozoal activity against Leishmania donovani MHOM/SD/62/1S-CL2D axenic amastigotes after 72 hrs
Assay type: functional, organism-based
observed_property: IC50 (µM)
Numbers only here, please. The scale is µM.

// below: answered compounds
- smiles_record: "c1cc(OCCCCOc2cccc(C3=NCCN3)c2)cc(C2=NCCN2)c1"
  IC50 / µM: 39.5
- smiles_record: "c1cc(OCCCCCOc2cccc(C3=NCCN3)c2)cc(C2=NCCN2)c1"
  IC50 / µM: 22.4
- smiles_record: "N=C(N)c1ccc(OCCCOc2ccc(C(=N)N)cc2[N+](=O)[O-])c([N+](=O)[O-])c1"
  IC50 / µM: 30.9
- smiles_record: "Cl.Cl.c1cc(C2=NCCN2)ccc1OCCCOc1ccc(C2=NCCN2)cc1"
  IC50 / µM: 2.88
- smiles_record: "CC(C)NC(=N)c1ccc(OCCCCCOc2ccc(C(=N)NC(C)C)cc2)cc1.Cl.Cl"
  IC50 / µM: 17.8
- smiles_record: "CCOC(=O)c1cc(C(=N)N)ccc1OCCCCCOc1ccc(C(=N)N)cc1C(N)=O"
  IC50 / µM: 52.1

*Q* Specify the recorded IC50 for `c1cc(OCCCOc2cccc(C3=NCCN3)c2)cc(C2=NCCN2)c1` , system: Leishmania donovani.
*A* 30.8

*Q* Specify the recorded IC50 for `Cl.Cl.N=C(N)c1ccc(OCCCCCCOc2ccc(C(=N)N)cc2)cc1` , system: Leishmania donovani.
*A* 1.97

*Q* Specify the recorded IC50 for `Cl.Cl.N=C(N)c1cccc(OCCCCCOc2cccc(C(=N)N)c2)c1` , system: Leishmania donovani.
*A* 3.19

====

Reported pIC50 values for the following compounds.
Test system: L6
Assay: Cytotoxicity against rat L6 cells after 70 hrs by alamar blue assay
Format: cell-based
Conditions: L6, 70 h
pIC50: −log10 of the molar value.

- smiles_record: "CCOC(=O)c1cc(C2=NCCN2)ccc1OCCCCCOc1ccc(C2=NCCN2)cc1C(=O)OCC"
  target_or_test_system: "L6"
  pIC50: "< 3.86"

*Q* Specify the recorded pIC50 for `COc1cc(C(=N)N)ccc1OCCCCOc1ccc(C(=N)N)cc1OC.Cl.Cl` , system: L6.
*A* < 3.73

*Q* Specify the recorded pIC50 for `CC(C)NC(=N)c1ccc(OCCCOc2ccc(C(=N)NC(C)C)cc2)cc1.Cl.Cl` , system: L6.
*A* < 3.72

*Q* Specify the recorded pIC50 for `N=C(N)c1ccc(OCCCCCOc2ccc(/C(N)=N\O)cc2)cc1` , system: L6.
*A* 4.94

====

Assay: Selectivity index, ratio of IC50 for rat L6 cells to IC50 for Leishmania donovani MHOM/SD/62/1S-CL2D axenic amastigotes
Assay type: toxicity, cell-based
Details: read-out: Ratio IC50
observed_property: selectivity ratio
Give only the figure.

// below: answered compounds
- smiles_record: "CC(C)NC(=N)c1ccc(OCCCCCOc2ccc(C(=N)NC(C)C)c(F)c2)cc1F"
  selectivity ratio: 9
- smiles_record: "Cl.Cl.Cl.Cl.N=C(N)c1ccc(OCCCCCOc2ccc(C(=N)N)cc2Cl)c(Cl)c1"
  selectivity ratio: 8
- smiles_record: "N=C(N)c1ccc(OCCCCCOc2ccc(C(=N)N)cc2[N+](=O)[O-])c([N+](=O)[O-])c1"
  selectivity ratio: 3
- smiles_record: "COc1cc(C2=NCCN2)ccc1OCCCOc1ccc(C2=NCCN2)cc1OC.Cl.Cl"
  selectivity ratio: 3
- smiles_record: "CCOC(=O)c1cc(C(=N)NC(C)C)ccc1OCCCCCOc1ccc(C(=N)NC(C)C)cc1C(=O)OCC.Cl.Cl"
  selectivity ratio: 2
- smiles_record: "Cl.Cl.c1cc(C2=NCCN2)ccc1OCCCOc1ccc(C2=NCCN2)cc1"
  selectivity ratio: 26

Could you now look at the following compound, please?
*Q* Let me know recorded selectivity ratio for `Fc1cc(OCCCCCOc2ccc(C3=NCCN3)c(F)c2)ccc1C1=NCCN1` , thanks.
*A* 0.4

====

Assay: Selectivity index, ratio of IC50 for rat L6 cells to IC50 for chloroquine-resistant Plasmodium falciparum K1
Format: toxicity, cell-based
Conditions: read-out: Ratio IC50
Reported selectivity ratio values for the following molecules.

- smiles_record: "Cl.Cl.Cl.Cl.N=C(N)c1ccc(OCCCCOc2ccc(C(=N)N)cc2Cl)c(Cl)c1"
  endpoint_value: 574
- smiles_record: "Cl.Cl.N=C(N)c1ccc(OCCCOc2ccc(C(=N)N)cc2Br)c(Br)c1"
  endpoint_value: 400
- smiles_record: "Nc1cc(C2=NCCN2)ccc1OCCCOc1ccc(C2=NCCN2)cc1N"
  endpoint_value: "> 2390"
- smiles_record: "Cl.Cl.N=C(N)c1ccc(OCCCCOc2ccc(C(=N)N)cc2)cc1"
  endpoint_value: 224

*Q* Let me know recorded selectivity ratio for `Cl.Cl.N=C(N)c1cccc(OCCCCOc2cccc(C(=N)N)c2)c1` , thanks.
*A* 762

*Q* Let me know recorded selectivity ratio for `Cl.Cl.N=C(N)c1cccc(OCCCCCOc2cccc(C(=N)N)c2)c1` , thanks.
*A* 968

*Q* Let me know recorded selectivity ratio for `N=C(N)c1ccc(S(=O)(=O)CCCCCS(=O)(=O)c2ccc(C(=N)N)cc2)cc1` , thanks.
*A* > 1780

*Q* Let me know recorded selectivity ratio for `Cl.Cl.N=C(N)c1cccc(OCCCOc2cccc(C(=N)N)c2)c1` , thanks.
*A* 953

*Q* Let me know recorded selectivity ratio for `CNC(=N)c1ccc(OCCCCCOc2ccc(C(=N)NC)cc2)cc1.Cl.Cl` , thanks.
*A* 38000

*Q* Let me know recorded selectivity ratio for `CN1CCN=C1c1ccc(OCCCCCOc2ccc(C3=NCCN3C)cc2)cc1` , thanks.
*A* > 107

*Q* Let me know recorded selectivity ratio for `c1cc(OCCCCCOc2cccc(C3=NCCN3)c2)cc(C2=NCCN2)c1` , thanks.
*A* 4170

*Q* Let me know recorded selectivity ratio for `c1cc(OCCCOc2cccc(C3=NCCN3)c2)cc(C2=NCCN2)c1` , thanks.
*A* 8

*Q* Let me know recorded selectivity ratio for `Fc1cc(OCCCCCOc2ccc(C3=NCCN3)c(F)c2)ccc1C1=NCCN1` , thanks.
*A* 43

*Q* Let me know recorded selectivity ratio for `N=C(N)c1ccc(OCCCCCOc2ccc(/C(N)=N\O)cc2)cc1` , thanks.
*A* 50

*Q* Let me know recorded selectivity ratio for `CCOC(=O)c1cc(C(=N)NC(C)C)ccc1OCCCCCOc1ccc(C(=N)NC(C)C)cc1C(=O)OCC.Cl.Cl` , thanks.
*A* > 10800

*Q* Let me know recorded selectivity ratio for `CC(C)NC(=N)c1ccc(OCCCOc2ccc(C(=N)NC(C)C)cc2)cc1.Cl.Cl` , thanks.
*A* > 7680

*Q* Let me know recorded selectivity ratio for `COc1cc(C2=NCCN2)ccc1OCCCCCOc1ccc(C2=NCCN2)cc1OC.Cl.Cl` , thanks.
*A* > 8320

*Q* Let me know recorded selectivity ratio for `CC(=N)Nc1ccc(OCCCCCOc2ccc(NC(C)=N)cc2)cc1` , thanks.
*A* > 4210

====

Reported Survival values for the following compounds.
Tested on: Trypanosoma brucei rhodesiense
Test: Antitrypanosomal activity against Trypanosoma brucei rhodesiense STIB900 trypomastigotes infected in NMRI mouse assessed as mouse survival at 5 mg/kg, ip administered from day 3 to day 6 postinfection
Assay type: functional
Details: route intraperitoneal
Numbers only here, please. The scale is days.

- smiles_record: "Cl.Cl.N=C(N)c1ccc(OCCCOc2ccc(C(=N)N)cc2Br)c(Br)c1"
  value_units: "days"
  Survival: 13
- smiles_record: "CC(C)NC(=N)c1ccc(NCCCCCNc2ccc(C(=N)NC(C)C)cc2)cc1.Cl"
  value_units: "days"
  Survival: 18

Could you now look at the following compound, please?
*Q* Let me know recorded Survival for `Cl.Cl.c1cc(C2=NCCN2)ccc1OCCCCOc1ccc(C2=NCCN2)cc1` , thanks.
*A* 7.8

====

Assay: Selectivity index, ratio of IC50 for rat L6 cells to IC50 for chloroquine-resistant Plasmodium falciparum K1
Type: toxicity, cell-based
Conditions: read-out: Ratio IC50
Reported selectivity ratio values for the following compounds.

- smiles_record: "c1cc(OCCCCCCOc2cccc(C3=NCCN3)c2)cc(C2=NCCN2)c1"
  selectivity ratio: 4950
- smiles_record: "Cl.Cl.N=C(N)c1ccc(SCCCCCSc2ccc(C(=N)N)cc2)cc1"
  selectivity ratio: 411
- smiles_record: "CC(C)NC(=N)c1cccc(OCCCCOc2cccc(C(=N)NC(C)C)c2)c1"
  selectivity ratio: "> 13200"
- smiles_record: "COc1cc(C(=N)N)ccc1OCCCOc1ccc(C(=N)N)cc1OC.Cl.Cl"
  selectivity ratio: 1840
- smiles_record: "Cl.Cl.N=C(Nc1ccc(OCCCCCOc2ccc(NC(=N)c3ccccc3)cc2)cc1)c1ccccc1"
  selectivity ratio: 15
- smiles_record: "Cl.Cl.c1cc(C2=NCCN2)ccc1OCCCCOc1ccc(C2=NCCN2)cc1"
  selectivity ratio: 2020
- smiles_record: "Cl.c1cc(C2=NCCN2)ccc1OCCCCCOc1ccc(C2=NCCN2)cc1"
  selectivity ratio: "> 59300"
- smiles_record: "Cl.Cl.c1cc(C2=NCCN2)ccc1NCCCCCNc1ccc(C2=NCCN2)cc1"
  selectivity ratio: 34500

*Q* Let me know recorded selectivity ratio for `COc1cc(C(=N)N)ccc1OCCCCOc1ccc(C(=N)N)cc1OC.Cl.Cl` , thanks.
*A* > 4250

*Q* Let me know recorded selectivity ratio for `C[C@@H]1CC[C@H]2[C@@H](C)C(=O)O[C@@H]3O[C@@]4(C)CC[C@@H]1[C@]32OO4` , thanks.
*A* 75000
